Biological target: MNK2a (Homo sapiens)
Test: MNK2a in vitro kinase assay (assay 1), ADP-Glo
Details: preactivated GST-MNK2a, 20 μM ATP, read-out: MNK2 IC50
pIC50: −log10 of the molar value.
result-type: pIC50

Examples with answers:
molecule: CCS(C)(=O)=Nc1cc(C)c2c(Nc3ccc(F)cc3O[C@H]3CC[C@H](O)CC3)ncnc2c1 (stereo partly shown) [Example 2.22]
target-desc: MNK2a (Homo sapiens)
pIC50: 8.52
--
molecule: CC(C)(C)OC(=O)N[C@H]1CC[C@H](Oc2ncccc2Nc2ncnc3cc(N=S(C)(C)=O)cc(F)c23)CC1 [Example 2.15]
target-desc: MNK2a (Homo sapiens)
pIC50: 8.15

A: COCCS(C)(=O)=Nc1cc(C)c2c(Nc3ccc(F)cc3O[C@@H]3CO[C@H]4[C@@H]3OC[C@H]4O)ncnc2c1 (stereo partly shown) [Example 2.41]
B: CS(C)(=O)=Nc1cc(Cl)c2c(Nc3ccc(F)cc3O[C@H]3CC[C@H](O)CC3)ncnc2c1 [Example 1.17]
### Prompt Name the one with the greater pIC50 value, either A or B as given. Label of pick, please.
### Response B

----------
Biological target: MNK2a (Homo sapiens)
Experiment: MNK2a in vitro kinase assay (assay 1), ADP-Glo
Conditions: preactivated GST-MNK2a, 20 μM ATP, read-out: MNK2 IC50
result-type: IC50 (nM)

Use these answered entries as a reference point.
molecule: Cc1cc(N=S2(=O)CCCCC2)cc2ncnc(Nc3ccc(F)cc3O[C@H]3CCOC3)c12 [Example 2.78]
IC50 / nM: 3

molecule: CS(C)(=O)=Nc1cc(F)c2c(Nc3cccnc3O[C@@H]3CCOC3)ncnc2c1 [Example 2.53]
IC50 / nM: 13

1: CCS(=O)(CC)=Nc1cc(C)c2c(Nc3ccc(F)cc3O[C@H]3CC[C@H](OC)CC3)ncnc2c1 [Example 2.12]
2: Cc1cc(N=S(C)(C)=O)cc2ncnc(Nc3ccc(F)cc3OC3(C)CC3)c12 [Example 1.28]
### Prompt Could you tell me which of 1 and 2 has the lower IC50 reading? Kindly state the label of the option you pick.
### Response 2
(2: 4 nM, 1: 13 nM)

----------
Molecular target: MNK2a (Homo sapiens, UniProt Q9HBH9)
Sequence (Q9HBH9 whole entry): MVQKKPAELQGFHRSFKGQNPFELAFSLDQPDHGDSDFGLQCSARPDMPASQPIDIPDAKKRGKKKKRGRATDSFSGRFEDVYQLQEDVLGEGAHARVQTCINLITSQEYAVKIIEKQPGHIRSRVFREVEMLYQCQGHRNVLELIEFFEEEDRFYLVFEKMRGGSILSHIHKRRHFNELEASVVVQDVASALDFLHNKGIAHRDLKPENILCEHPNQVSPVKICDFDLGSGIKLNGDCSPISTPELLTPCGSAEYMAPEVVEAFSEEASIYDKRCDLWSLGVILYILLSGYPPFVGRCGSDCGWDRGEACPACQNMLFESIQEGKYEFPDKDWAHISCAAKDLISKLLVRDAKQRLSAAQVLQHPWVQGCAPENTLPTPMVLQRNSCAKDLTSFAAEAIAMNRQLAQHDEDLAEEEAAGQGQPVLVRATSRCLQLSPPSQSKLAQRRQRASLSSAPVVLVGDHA
Assay: MNK2a in vitro kinase assay (assay 1), ADP-Glo
Conditions: preactivated GST-MNK2a, 20 μM ATP, read-out: MNK2 IC50
pIC50: −log10 of the molar value.
result-type: pIC50

1: CO[C@@H]1CO[C@H]2[C@@H]1OC[C@H]2Oc1cc(F)ccc1Nc1ncnc2cc(N=S(C)(C)=O)cc(Br)c12
2: Cc1cc(N=S2(=O)CCCCC2)cc2ncnc(Nc3ccc(F)cc3O[C@@H]3CO[C@H]4[C@@H]3OC[C@H]4O)c12
### Prompt Larger number for pIC50: 1 , or 2 ? API: response body contains the label of the selected item.
### Response 1
(1: 9.00, 2: 8.52)

I: CO[C@@H]1CCC[C@H]1Oc1cc(F)ccc1Nc1ncnc2cc(N=S(C)(C)=O)cc(C)c12
II: Cc1cc(N=S2(=O)CCC(O)C2)cc2ncnc(Nc3ccc(F)cc3O[C@H]3CCOC3)c12 (stereo partly shown)
### Prompt Parameter metric = pIC50. Return the lower-valued option from I and II . Answer = label.
### Response II
(II: 8.40, I: 8.70)

----------
Biological target: UniProt:Q9BUB5
Assay: MNK1 in vitro kinase assay (assay 2), Z'-LYTE
Type: biochemical
Conditions: compound concentration of 1 μM
result-type: inhibition at 1 µM (%)

Example cases with answers are listed next.
molecule: CS(C)(=O)=Nc1cc(F)c2c(Nc3cccnc3O[C@H]3CC[C@H](N)CC3)ncnc2c1 [Example 3.5]
inhibition at 1 µM / %: 101
--
molecule: Cc1cc(N=S(C)(C)=O)cc2ncnc(Nc3ccc(F)cc3OC3(C)CCC3)c12 [Example 1.29]
inhibition at 1 µM / %: 92
--
molecule: Cc1cc(N=S(C)(C)=O)cc2ncnc(Nc3ccc(C(N)=O)cc3OC3CCCC3)c12 [Example 2.24]
inhibition at 1 µM / %: 93
--
molecule: Cc1cc(N=S(C)(=O)c2ccncc2)cc2ncnc(Nc3ccc(F)cc3O[C@H]3CCOC3)c12 (some centres unmarked) [Example 2.100]
inhibition at 1 µM / %: 89
--
molecule: CO[C@H]1CC[C@H](Oc2cc(F)ccc2Nc2ncnc3cc(N=S(C)(C)=O)cc(F)c23)CC1 [Example 2.46]
inhibition at 1 µM / %: 88

a: CO[C@H]1CC[C@H](Oc2ncccc2Nc2ncnc3cc(N=S(C)(C)=O)cc(F)c23)CC1 [Example 2.49]
b: Cc1cc(N=S(C)(C)=O)cc2ncnc(Nc3ccc(F)cc3O[C@@H]3CCN(C(=O)OC(C)(C)C)C3)c12 [Example 2.52]
c: CCS(=O)(CC)=Nc1cc(C)c2c(Nc3ccc(F)cc3O[C@H]3CC[C@H](OC)CC3)ncnc2c1 [Example 2.12]
d: CS(C)(=O)=Nc1cc(N2CCC2)c2c(Nc3ccc(F)cc3O[C@H]3CCOC3)ncnc2c1 [Example 1.19]
### Prompt # rank by inhibition at 1 µM, ascending (min first) Field: ranking. Enter the labels in the order requested.
### Response c, d, b, a
(c: 24%, d: 42%, b: 60%, a: 86%)

----------
Molecular target: MNK1a (Homo sapiens, UniProt Q9BUB5)
Sequence (Q9BUB5 1-424 isoform Q9BUB5-2): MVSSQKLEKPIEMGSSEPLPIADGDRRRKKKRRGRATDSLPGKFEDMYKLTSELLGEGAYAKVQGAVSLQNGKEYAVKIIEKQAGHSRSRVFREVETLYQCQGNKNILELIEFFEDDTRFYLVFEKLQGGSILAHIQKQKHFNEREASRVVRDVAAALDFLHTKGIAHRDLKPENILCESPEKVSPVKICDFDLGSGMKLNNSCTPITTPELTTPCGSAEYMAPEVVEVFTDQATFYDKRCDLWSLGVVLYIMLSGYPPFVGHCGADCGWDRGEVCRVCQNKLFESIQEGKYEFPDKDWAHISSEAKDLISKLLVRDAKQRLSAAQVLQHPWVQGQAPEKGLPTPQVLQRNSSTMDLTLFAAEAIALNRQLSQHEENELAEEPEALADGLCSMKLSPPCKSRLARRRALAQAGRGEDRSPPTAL
Assay: MNK1 in vitro kinase assay (assay 2), Z'-LYTE
Assay type: biochemical
Conditions: compound concentration of 1 μM
result-type: inhibition at 1 µM (%)

compound: Cc1cc(N=S(C)(C)=O)cc2ncnc(Nc3cccnc3O[C@@H]3CCCNC3)c12
inhibition at 1 µM (%): 80
//
compound: CC(C)(O)CN1CCC[C@@H](Oc2ncccc2Nc2ncnc3cc(N=S(C)(C)=O)cc(F)c23)C1
inhibition at 1 µM (%): 70
//
compound: CS(C)(=O)=Nc1cc(C#N)c2c(Nc3ccc(F)cc3O[C@H]3CCOC3)ncnc2c1
inhibition at 1 µM (%): 96
//
compound: Cc1cc(N=S(C)(=O)CCc2ccccc2)cc2ncnc(Nc3ccc(F)cc3O[C@H]3CC[C@H](O)CC3)c12 (stereo partly shown)
inhibition at 1 µM (%): 69
//
compound: CCS(C)(=O)=Nc1cc(C)c2c(Nc3ccc(F)cc3O[C@@H]3CO[C@H]4[C@@H]3OC[C@H]4O)ncnc2c1 (stereo partly shown)
inhibition at 1 µM (%): 100
//
compound: CS(C)(=O)=Nc1cc(F)c2c(Nc3ccc(F)cc3O[C@@H]3CCCN(CCO)C3)ncnc2c1
inhibition at 1 µM (%): 85
//
compound: CS(C)(=O)=Nc1cc(F)c2c(Nc3cccnc3O[C@@H]3CCOC3)ncnc2c1
inhibition at 1 µM (%): 94

----------
Molecular target: MNK2a (Homo sapiens, UniProt Q9HBH9)
Assay: MNK2a in vitro kinase assay (assay 1), ADP-Glo
Conditions: preactivated GST-MNK2a, 20 μM ATP, read-out: MNK2 IC50
pIC50: −log10 of the molar value.
result-type: pIC50

Examples with answers:
compound: Cc1cc(N=S(C)(C)=O)cc2ncnc(Nc3ccc(F)cc3OC3CCC(O)C3)c12 (racemic) [Example 4.3]
observed-measurement: 8.52

compound: Cc1cc(N=S(C)(C)=O)cc2ncnc(Nc3ccc(F)cc3OC3(C)CC3C)c12 (centres unmarked) [Example 1.33]
observed-measurement: 8.70

P: CS(C)(=O)=Nc1cc(C(F)(F)F)c2c(Nc3ccc(F)cc3O[C@H]3CCOC3)ncnc2c1 [Example 1.5]
Q: Cc1cc(N=S2(=O)CCCC2)cc2ncnc(Nc3ccsc3O[C@@H]3CCOC3)c12 [Example 2.8]
### Prompt Thinking about recorded pIC50 values, which is higher, P or Q ? // output: label of the selected item
### Response P

----------
Target: MNK2a (Homo sapiens)
Assay: MNK2a in vitro kinase assay (assay 1), ADP-Glo
Settings: preactivated GST-MNK2a, 20 μM ATP, read-out: MNK2 IC50
result-type: IC50 (nM)

compound: Cc1cc(N=S(C)(C)=O)cc2ncnc(Nc3cccnc3O[C@H]3CCCNC3)c12
IC50 (nM): 4

compound: Cc1cc(N=S(C)(C)=O)cc2ncnc(Nc3ccc(F)cc3O[C@@H]3CCN(CC(F)F)C3)c12
IC50 (nM): 3

compound: CCO[C@@H]1CO[C@H]2[C@@H]1OC[C@H]2Oc1cc(F)ccc1Nc1ncnc2cc(N=S(C)(C)=O)cc(C)c12
IC50 (nM): 1

compound: Cc1cc(N=S(C)(C)=O)cc2ncnc(Nc3ccc(F)cc3OC3(C)COC3)c12
IC50 (nM): 13

compound: Cc1cc(N=S(C)(C)=O)cc2ncnc(Nc3ccc(F)cc3O[C@H]3C[C@H](N(C)C)C3)c12
IC50 (nM): 10

compound: Cc1cc(N=S(C)(C)=O)cc2ncnc(Nc3ccc(F)cc3O[C@@H]3CCCNC3)c12
IC50 (nM): 10

compound: Cc1cc(N=S(C)(C)=O)cc2ncnc(Nc3ccsc3O[C@@H]3CCOC3)c12
IC50 (nM): 109

compound: Cc1cc(N=S(C)(=O)CCN2CCCC2)cc2ncnc(Nc3ccc(F)cc3O[C@H]3CC[C@H](O)CC3)c12 (stereo partly drawn)
IC50 (nM): 10

a: CO[C@H]1CC[C@H](Oc2cc(F)ccc2Nc2ncnc3cc(N=S4(=O)CCN(C(C)=O)CC4)cc(C)c23)CC1
b: CO[C@H]1CC[C@H](Oc2cc(F)ccc2Nc2ncnc3cc(N=S4(=O)CCCCC4)cc(C)c23)CC1
### Prompt Higher IC50 between a and b ? I would appreciate it if you answered with the label of your choice.
### Response a
(a: 6 nM, b: 2 nM)
